test_target: androgen receptor (AR-LBD) (Rattus norvegicus, UniProt P15207)
Construct: 5 μL of 2×AR-LBD/Fluoromone AL Red Complex contained in the kit; purchased Invitrogen
procedure_text: Evaluation of androgen receptor affinity (PolarScreen Androgen Receptor Competitor Assay Kit, Red; fluorescence polarization)
conditions_used: 22° C. for 5 hours, relative to binding rate of 1 μM DHT, read-out: AR affinity (pEC50) (converted)
The reader will find reported log10 EC50 values listed item by item below.
Annotation: log10 of EC50, nM basis.

Consider the worked cases shown below.
- molecule: "[2H]c1c([2H])c([2H])c(C([2H])([2H])N(c2ccc(C#N)cc2)c2nc(C(=O)NS(C)(=O)=O)c(C)s2)c([2H])c1[2H] [Compound 388]"
  log10 EC50: 1.70
- molecule: "COCCCS(=O)(=O)NC(=O)c1nc(N(Cc2ccc(F)cc2Cl)c2ccc(C#N)cc2)sc1C [Example 192]"
  log10 EC50: 1.80
- molecule: "Cc1sc(N(Cc2ccc(C3CC3)cc2)c2ccc(C#N)cc2)nc1C(=O)NS(C)(=O)=O [Compound 588]"
  log10 EC50: 1.50
- molecule: "Cc1sc(N(Cc2ccccc2)c2ccc(Cl)c(Cl)c2)nc1C(=O)NS(C)(=O)=O [Compound 37]"
  log10 EC50: 1.70
- molecule: "Cc1sc(N(CCCC(C)C)c2ccc(C#N)cc2)nc1C(=O)NS(C)(=O)=O [Compound 438]"
  log10 EC50: 1.40

I am curious: what log10 EC50 value has been reported for Cc1sc(N(Cc2ccc3c(c2)OCO3)c2ccc(C#N)cc2)nc1C(=O)NS(C)(=O)=O [Compound 128] ? 1.60

I am curious: what log10 EC50 value has been reported for Cc1sc(N(Cc2ccc(Br)cc2C#N)c2ccc(C#N)cc2)nc1C(=O)NS(C)(=O)=O [Example 182] ? 2.80

I am curious: what log10 EC50 value has been reported for COCCCS(=O)(=O)NC(=O)c1nc(N(Cc2cc(F)cc(OC(F)F)c2)c2ccc(C#N)cc2)sc1C [Compound 519] ? 1.40

I am curious: what log10 EC50 value has been reported for Cc1sc(N(CCc2ccc(Cl)cc2)Cc2ccc(Cl)cc2)nc1C(=O)NS(=O)(=O)Cc1cccnc1 [Compound 695] ? 1.40

I am curious: what log10 EC50 value has been reported for Cc1sc(N(CCCc2ccccc2)Cc2ccccc2)nc1C(=O)NS(C)(=O)=O [Example 297] ? 2.70

---

test_target: androgen receptor (AR-LBD) (Rattus norvegicus, UniProt P15207)
Construct: 5 μL of 2×AR-LBD/Fluoromone AL Red Complex contained in the kit; purchased Invitrogen
Sequence (P15207 651-882 limits assumed): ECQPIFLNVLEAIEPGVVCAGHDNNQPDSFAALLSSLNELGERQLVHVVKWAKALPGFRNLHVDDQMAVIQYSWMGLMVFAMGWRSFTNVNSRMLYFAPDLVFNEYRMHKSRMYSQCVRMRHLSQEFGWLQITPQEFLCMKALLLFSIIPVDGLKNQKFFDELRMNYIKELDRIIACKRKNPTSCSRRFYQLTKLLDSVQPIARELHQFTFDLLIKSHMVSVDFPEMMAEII
procedure_text: Evaluation of androgen receptor affinity (PolarScreen Androgen Receptor Competitor Assay Kit, Red; fluorescence polarization)
conditions_used: 22° C. for 5 hours, relative to binding rate of 1 μM DHT, read-out: AR affinity (pEC50) (converted)
Description: Evaluation of an Androgen Receptor Affinity To examine the interaction of a compound with an androgen receptor, evaluation was carried out in accordance with the following procedure using PolarScreen™ Androgen Receptor Competitor Assay Kit, Red (Invitrogen). To 2 wells each of a 384 well black plate was added 5 μL of the compound solution. […] After 5 hours of the reaction, fluorescence polarization was measured and the affinity was evaluated. […]
The reader will find reported EC50 values listed item by item below.
I only need the number, in nM, no unit after it.

Consider the worked cases shown below.
- compound: "Cc1sc(N(Cc2ccc3c(c2)C(O)CC3)c2ccc(C#N)cc2)nc1C(=O)NS(C)(=O)=O (centres unmarked)"
  unit_spec: "nM"
  EC50: 158
- compound: "Cc1sc(N(Cc2ccc3c(c2)OCCO3)c2ccc(C#N)cc2)nc1C(=O)NS(C)(=O)=O"
  unit_spec: "nM"
  EC50: 50.1

I am curious: what EC50 value has been reported for CCS(=O)(=O)NC(=O)c1nc(N(CCC2CCCCC2)Cc2ccc(Cl)cc2)sc1C ? 126

I am curious: what EC50 value has been reported for Cc1sc(N(Cc2ccc(F)cc2F)c2ccc(C#N)cc2)nc1C(=O)NS(C)(=O)=O ? 50.1

I am curious: what EC50 value has been reported for Cc1sc(N(Cc2ccc(Br)cc2F)c2ccc(C#N)cc2)nc1C(=O)NS(C)(=O)=O ? 39.8

I am curious: what EC50 value has been reported for Cc1oc(N(CCc2ccc(Cl)cc2)Cc2cccc(OC(F)(F)F)c2)nc1C(=O)NS(C)(=O)=O ? 79.4

I am curious: what EC50 value has been reported for Cc1sc(N(CC[C@H]2CC[C@@H](O)C2)c2ccc(C#N)cc2)nc1C(=O)NS(C)(=O)=O (racemic) ? 501

I am curious: what EC50 value has been reported for CCc1oc(N(Cc2ccc(C(F)(F)F)nc2)c2ccc(C#N)cc2)nc1C(=O)NS(C)(=O)=O ? 251

I am curious: what EC50 value has been reported for Cc1sc(N(CCC2CCCC2)c2ccc(C#N)cc2)nc1C(=O)NS(C)(=O)=O ? 25.1

I am curious: what EC50 value has been reported for Cc1sc(N(CCC2CCOCC2)Cc2ccccc2)nc1C(=O)NS(C)(=O)=O ? 398

I am curious: what EC50 value has been reported for Cc1sc(N(Cc2ccc(F)c(C(F)(F)F)c2)c2ccc(C#N)cc2)nc1C(=O)NS(C)(=O)=O ? 25.1

---

test_target: human androgen receptor (Homo sapiens)
Construct: expressed in transfected cells; host or cells: HEK293
procedure_text: Reporter assay of an androgen receptor responsive sequence (luciferase, transiently transfected HEK293 cells)
Assay type: cell-based
conditions_used: 24 hours incubation, relative to activity of 100 nM DHT, read-out: AR transcriptive activity (pEC50) (converted)
parameter: EC50

Consider the worked cases shown below.
- compound: "CCc1oc(N(CC[C@@H]2CCCC[C@H]2O)c2ccc(C#N)cc2)nc1C(=O)NS(C)(=O)=O (racemic)"
  parameter: "EC50"
  result_value: "2510 nM"
- compound: "Cc1sc(N(Cc2ccc(Cl)cc2F)c2ccc(C#N)cc2)nc1C(=O)NS(C)(=O)=O"
  parameter: "EC50"
  result_value: "63.1 nM"
- compound: "Cc1sc(N(Cc2cccc(CO)c2)c2ccc(C#N)cc2)nc1C(=O)NS(C)(=O)=O"
  parameter: "EC50"
  result_value: "316 nM"

I am curious: what EC50 value has been reported for Cc1sc(N(CCC(C)C)c2ccc(C#N)cc2)nc1C(=O)NS(C)(=O)=O ? 794 nM

I am curious: what EC50 value has been reported for Cc1sc(N(CCc2ccc(Cl)cc2)Cc2ccc(Cl)cn2)nc1C(=O)NS(C)(=O)=O ? 631 nM

I am curious: what EC50 value has been reported for Cc1nc(CN(CCc2ccc(Cl)cc2)c2nc(C(=O)NS(C)(=O)=O)c(C)o2)cs1 ? 1580 nM

I am curious: what EC50 value has been reported for Cc1sc(N(Cc2csc3cccc(C)c23)c2ccc(C#N)cc2)nc1C(=O)NS(C)(=O)=O ? 5010 nM

---

test_target: human androgen receptor (Homo sapiens, UniProt P10275)
Construct: expressed in transfected cells; host or cells: HEK293
Sequence (P10275 1-920): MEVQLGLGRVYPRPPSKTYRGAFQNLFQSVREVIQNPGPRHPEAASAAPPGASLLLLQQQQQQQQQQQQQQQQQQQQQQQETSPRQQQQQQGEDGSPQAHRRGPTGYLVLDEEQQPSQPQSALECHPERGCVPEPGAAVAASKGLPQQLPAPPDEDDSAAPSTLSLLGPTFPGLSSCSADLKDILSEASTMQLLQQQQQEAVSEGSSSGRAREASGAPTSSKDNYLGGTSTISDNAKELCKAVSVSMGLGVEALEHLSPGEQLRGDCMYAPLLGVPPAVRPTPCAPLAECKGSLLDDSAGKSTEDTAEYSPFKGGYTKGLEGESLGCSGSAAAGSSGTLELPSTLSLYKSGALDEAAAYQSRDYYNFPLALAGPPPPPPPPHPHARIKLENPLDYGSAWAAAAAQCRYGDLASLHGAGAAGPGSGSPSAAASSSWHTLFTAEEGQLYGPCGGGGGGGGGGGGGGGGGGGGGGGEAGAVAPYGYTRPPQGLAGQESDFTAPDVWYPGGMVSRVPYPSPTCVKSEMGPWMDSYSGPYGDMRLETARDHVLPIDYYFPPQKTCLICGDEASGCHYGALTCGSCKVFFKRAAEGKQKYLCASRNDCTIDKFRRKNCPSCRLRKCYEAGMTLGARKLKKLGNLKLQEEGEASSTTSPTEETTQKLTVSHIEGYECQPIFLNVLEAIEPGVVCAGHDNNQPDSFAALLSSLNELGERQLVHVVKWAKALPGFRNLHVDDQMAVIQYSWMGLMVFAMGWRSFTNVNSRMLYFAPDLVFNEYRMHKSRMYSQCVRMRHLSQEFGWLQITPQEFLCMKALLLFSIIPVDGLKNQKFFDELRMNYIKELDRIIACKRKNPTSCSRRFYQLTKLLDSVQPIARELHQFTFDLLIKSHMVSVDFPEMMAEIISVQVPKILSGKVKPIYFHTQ
procedure_text: Reporter assay of an androgen receptor responsive sequence (luciferase, transiently transfected HEK293 cells)
Type: cell-based
conditions_used: 24 hours incubation, relative to activity of 100 nM DHT, read-out: AR transcriptive activity (pEC50) (converted)
parameter: EC50 (nM)
I only need the number, in nM, no unit after it.

Consider the worked cases shown below.
- compound: "Cc1sc(N(Cc2ccc(OC(F)(F)F)cc2)c2ccc(C#N)cc2)nc1C(=O)NS(C)(=O)=O [Compound 7]"
  result_value: 63.1
- compound: "Cc1sc(N(CCc2ccc(C#N)cc2)Cc2ccc(OC(F)(F)F)cc2)nc1C(=O)NS(=O)(=O)Cc1ccncc1 [Compound 742]"
  result_value: 2000
- compound: "Cc1sc(N(Cc2cc(F)ccc2Cl)c2ccc(C#N)cc2)nc1C(=O)NS(C)(=O)=O [Compound 108]"
  result_value: 501
- compound: "Cc1sc(N(CCc2cccc(C#N)c2)Cc2ccccc2)nc1C(=O)NS(C)(=O)=O [Compound 672]"
  result_value: 1260
- compound: "CS(=O)(=O)NC(=O)c1nc(N(Cc2cc3ccccc3s2)c2ccc(C#N)cc2)sc1Cl [Example 280]"
  result_value: 25.1
- compound: "Cc1cc(CN(CCc2ccc(Cl)cc2)c2nc(C(=O)NS(C)(=O)=O)c(C)s2)no1 [Compound 508]"
  result_value: 5010
- compound: "Cc1sc(N(Cc2cc3ccccc3s2)c2ccc(C#N)cc2)nc1C(=O)NS(C)(=O)=O [Compound 51]"
  result_value: 31.6

Now let's try a different one.
State its EC50 on human androgen receptor (Homo sapiens, UniProt P10275): Cc1sc(N(Cc2ccccc2)c2ccc(-n3cncn3)cc2)nc1C(=O)NS(C)(=O)=O [Compound 61] 3160
